SYSTEM UNDER TEST: T1, 4H850-bH
T1 chain: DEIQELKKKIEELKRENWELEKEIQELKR
ASSAY OVERVIEW: two-hybrid library CCNG1;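 also: natural log of median RNA to DNA barcode read ratio; higher means stronger binding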
Below is a list of entries, each paired with its recorded interaction score value.

{"BINDER": "DKNQELKKEIEELERKNWELEKKIQELKR [4H3638-bH]", "interaction score": 1.04}
{"BINDER": "DKNQELKKEIEELERENWELKKKIQELER [4H3613-bH]", "interaction score": 1.37}
{"BINDER": "DEIQELKKEIEELKREIWELEKKNQELKR [4H584-bH]", "interaction score": 0.297}
{"BINDER": "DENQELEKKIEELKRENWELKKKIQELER [4H1373-bH]", "interaction score": -0.156}
